Data origin, for the record: patent US20250326748A1

System: HTT mRNA
assay overview: Splicing RT-qPCR assay, HTT canonical (CJ) and alternative (AJ) junction mRNA
Format: cell-based, human
study conditions: Homo sapiens, canonical junction mRNA, qPCR panel; read-out: HTT CJ (decrease in CJ mRNA levels, IC50)
Measured IC50 by item

Sample records with IC50:
Cn1cc2cc(-c3cc(Cl)c4cc(N5CC[C@@H](N6CCC6)C5)cnc4n3)c(O)cc2n1
1000 to 10000 nM
Cc1c(O)c(-c2cc(Cl)c3cc(N4C[C@@H]5CCCN(C)[C@@H]5C4)cnc3n2)cc2cn(C)nc12
> 10000 nM
CN[C@H]1CN(c2cnc3nc(-c4cc5cn(C)nc5c(C)c4O)ccc3c2)C[C@H]1F
100 to 1000 nM
COc1nc(-c2cc(Cl)c3cc(N4C[C@H](C)N[C@@H](C)C4)cnc3n2)cn2cc(C)nc12
> 10000 nM

Reported IC50, molecule CN(C)[C@@H]1CCN(c2cnc3nc(-c4cc5cn(C)nc5c(F)c4O)cc(Cl)c3c2)C1 : ____
< 100 nM

Reported IC50, molecule Cn1cc2cc(-c3cc(Cl)c4cc(N5CCNCC5)cnc4n3)cc(F)c2n1 : ____
100 to 1000 nM

Reported IC50, molecule CN[C@H]1CCN(c2cnc3nc(-c4cc5cn(C)nc5c(F)c4O)cc(Cl)c3c2)C1 : ____
< 100 nM

Reported IC50, molecule C[C@@H]1CN(c2cnc3nc(-c4cc5cn(C)nc5c(F)c4O)cc(C4CC4)c3c2)C[C@H](C)N1 : ____
1000 to 10000 nM
